# measured on: T1, human programmed cell death protein 1 (hPD-1) C93S (aa 24-167) (Homo sapiens, UniProt Q15116, C93S)
# T1 construct: made as a fusion with a TEV site and human Fc; the Fc was cut off with TEV protease; source: Expi293F, purified (Protein A, TEV cleavage of Fc, SEC; monomer fractions); not shown: Fc (human), C-terminal, cleaved
# assay remarks: SPR; Carterra LSA; Fab from the ammonium sulfate precipitate of the culture supernatant immobilised on a NiHC200M chip; hPD-1 (1-1024 nM) or mPD-1-Fc (4-1024 nM) as analyte, fourfold dilution series, no regeneration; HBS-EP pH 7.4, 25 °C; medians over the spots of a construct, KD = koff/kon
# condition summary: one partner purified
Below is a list of entries, each paired with its recorded Kd value.
The reply should be a number in nM, with the unit left off.

toripalimab Fab H.I101A (Fab, V domains shown, heavy chain of Sm3 with this change; numbers count from the chain's first residue; as the light chain of Sm3; source: Brevibacillus, culture supernatant (ammonium sulfate precipitate); not shown: 6xHis, C-terminal, kept; 6xHN, C-terminal, kept) VH: QGQLVQSGAEVKKPGASVKVSCKASGYTFTDYEMHWVRQAPIHGLEWIGVIESETGGTAYNQKFKGRVTITADKSTSTAYMELSSLRSEDTAVYYCAREGATTVATTYYWYFDVWGQGTTVTVSS VL: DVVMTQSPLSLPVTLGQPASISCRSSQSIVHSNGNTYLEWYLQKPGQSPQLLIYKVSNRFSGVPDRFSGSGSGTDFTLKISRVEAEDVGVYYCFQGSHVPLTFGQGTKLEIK ... 107

Continue with the next binder.
Value of measured Kd for the entry toripalimab Fab L.S97A (Fab, V domains shown, as the heavy chain of Sm3; light chain of Sm3 with this change; numbers count from the chain's first residue; source: Brevibacillus, culture supernatant (ammonium sulfate precipitate); not shown: 6xHis, C-terminal, kept; 6xHN, C-terminal, kept) VH: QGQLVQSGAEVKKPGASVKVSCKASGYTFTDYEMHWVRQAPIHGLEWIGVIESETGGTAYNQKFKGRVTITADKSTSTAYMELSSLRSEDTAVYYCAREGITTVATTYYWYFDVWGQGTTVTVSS VL: DVVMTQSPLSLPVTLGQPASISCRSSQSIVHSNGNTYLEWYLQKPGQSPQLLIYKVSNRFSGVPDRFSGSGSGTDFTLKISRVEAEDVGVYYCFQGAHVPLTFGQGTKLEIK : 1.88
